Attribution: patent US20040018971A1

tested_system: HLA-A*3101 (human)
assay_info: inhibition of 125I probe peptide binding to purified HLA
condition_parameters: remark: other sources report otherwise
result_type: pIC50
pIC50 here: minus log base 10 of the concentration, concentration in moles per litre.

Q: Which pIC50 is listed for VVFGILIKRR [Her2/neu.669 (AA 10)] ?
Result: 6.54
